Field: TGI. Provide a value for each of the compounds that follow.
Test system: SF-539 CNS
Test: NCI tumour cell line growth inhibition, 48 h
Numeric only. Scale: µM

Problem: Look up and state reported TGI for O=S(=O)(Sc1ccc(Cl)cc1)c1ccc(Cl)cc1
Solution: 27.7

Problem: Look up and state reported TGI for COc1ccc(C(OCC2OC(n3ccc(NC(=O)c4ccccc4)nc3=O)C(O)C2O)(c2ccccc2)c2ccccc2)cc1 (stereo not drawn)
Solution: 3.94

----------
System: SF-268 CNS
Test: NCI tumour cell line growth inhibition, 48 h; in the data active = GI50 below about 0.43 µM; inactive = the rest
Write down one outcome, taken from active, inactive

Problem: Which result was noted for this molecule in the test: O=C(C1CCCCC1)[C@@H]1[C@]2(C(=O)NC3CCCCC32)[C@@H]2CCCN2[C@@]12C(=O)NC1CCC(Cl)CC12 (stereo partly specified)
Solution: inactive

Problem: Which result was noted for this molecule in the test: COc1cccc(NC(=O)c2sc3nc4c(cc3c2N)CN(Cc2ccccc2)CC4)c1
Solution: inactive

Problem: Which result was noted for this molecule in the test: O[C@H]1CO[C@H]2[C@@H]1OC[C@@H]2Oc1ccc(Nc2ccnc(Nc3ccc(O[C@H]4CO[C@H]5[C@@H]4OC[C@@H]5O)c(Cl)c3)n2)cc1Cl
Solution: inactive

Problem: Which result was noted for this molecule in the test: C=CC(=O)Nc1cccc(C)c1Nc1cc(-c2cccnc2Cc2c(C)c(OC)cc(OC)c2C)ncn1
Solution: inactive

Problem: Which result was noted for this molecule in the test: C=C1CC[C@@H]2[C@](C)(COC(C)=O)[C@@H](O)CC[C@@]2(C)[C@@H]1COc1ccc2ccc(=O)oc2c1
Solution: inactive

Problem: Which result was noted for this molecule in the test: O=c1[nH]c2ccccc2nc1-c1c[nH]c2ccccc12
Solution: inactive

Problem: Which result was noted for this molecule in the test: CC(C)CC(CC1=CCC2CC1C2(C)C)C1=C(O)C(C)(C)C(=O)C(C)(C)C1=O (stereo unspecified)
Solution: active

Problem: Which result was noted for this molecule in the test: O=C1c2c(c3c4ccccc4[nH]c3c3ccc4ccccc4c23)C(=O)N1CCN1CCCCC1
Solution: inactive

Problem: Which result was noted for this molecule in the test: CCN=C1C=CC(=C(c2ccc(N)cc2)c2ccc(N(CC)CC)c(C)c2)C=C1
Solution: active

Problem: Which result was noted for this molecule in the test: COc1ccc(-c2cc(-c3ccccc3)nc(SCCCC(=O)NO)n2)cc1
Solution: inactive

Problem: Which result was noted for this molecule in the test: O=C1C(=O)c2c(nc3ccc(Cl)cn23)-c2ccccc21
Solution: active

Problem: Which result was noted for this molecule in the test: N=C(N)c1ccc(N2CCCN(c3ccc(C(=N)N)cc3)CC2)cc1
Solution: inactive

Problem: Which result was noted for this molecule in the test: C=CC(=O)N(C)[C@H]1C[C@H]2OC(C)(C1OC)n1c3ccccc3c3c4c(c5c6ccccc6n2c5c31)C(=O)NC4 (stereo partly specified)
Solution: active

Problem: Which result was noted for this molecule in the test: N#Cc1c(N/N=C/c2c(Cl)cccc2Cl)nc(N)nc1N1CCOCC1
Solution: inactive

Problem: Which result was noted for this molecule in the test: c1ccc2c(c1)c(NCCCCN1CCCCC1)cc1c3ccccc3c(NCCCCN3CCCCC3)cc21
Solution: inactive

Problem: Which result was noted for this molecule in the test: N/C(=N\N=C\c1ccc(-c2ccccc2)cc1)N[N+](=O)[O-]
Solution: inactive

Data provenance: PubChem BioAssay (NCI)
